Tested on: Escherichia coli IAI1
measurement_description: growth (OD595) fold change vs plate DMSO controls (fold change (ratio)); higher = more growth
experimental_parameters: incubation time: 27 h, anaerobic, 37 °C
Counter-ions that a name gives are not always drawn.
Label not satisfied if growth falls below 1; label satisfied in every other case.

Worked set:
Enquiry: # bool: growth of Cc1cn([C@H]2C[C@H](N=[N+]=[N-])[C@@H](CO)O2)c(=O)[nH]c1=O [Zidovudine] (20 µM) >= 1
Return: not satisfied

Enquiry: Can NCCCC[C@H](N[C@@H](CCc1ccccc1)C(=O)O)C(=O)N1CCC[C@H]1C(=O)O [Lisinopril] (20 µM) be said to have growth at or above 1?
Return: satisfied

Enquiry: Assess whether reported growth for Nc1nc(/C(=C/CC(=O)O)C(=O)N[C@@H]2C(=O)N3C(C(=O)O)=CCS[C@H]23)cs1 [Ceftibuten] (20 µM) sits at 1 or higher.
Return: satisfied

Enquiry: // inclusive: growth at least 1? input: CN(C)CCCOc1nn(Cc2ccccc2)c2ccccc12 [Benzydamine hydrochloride] (20 µM)
Return: not satisfied

Enquiry: Could you verify whether the entry CO[C@@H]1[C@@H](OC(N)=O)[C@@H](O)[C@H](Oc2ccc3c(O)c(NC(=O)c4ccc(O)c(CC=C(C)C)c4)c(=O)oc3c2C)OC1(C)C [Novobiocin sodium salt] (20 µM) shows growth of no less than 1?
Return: not satisfied

Enquiry: Entry COC(=O)[C@H](c1ccccc1Cl)N1CCc2sccc2C1 [Clopidogrel] (20 µM) : is its growth no less than 1?
Return: satisfied

Enquiry: State whether the measured growth reaches 1, counting equality as reaching it, for CN(C)CCN(Cc1ccc(Cl)cc1)c1ccccn1 [Chloropyramine hydrochloride] (20 µM)
Return: satisfied

Enquiry: hey, is growth for this one >= 1? Nc1nc(=S)c2ncn([C@@H]3O[C@H](CO)[C@@H](O)[C@H]3O)c2[nH]1 [Thioguanosine] (20 µM)
Return: not satisfied

***
Enquiry: Quick check: does CC(C)OC(=O)C(C(=O)OC(C)C)=C1SC=CS1 [Malotilate] (20 µM) have growth greater than or equal to 1?
Return: satisfied

Enquiry: Is the recorded value of growth equal to or greater than 1 for this molecule? Fc1ccc([C@@H]2CCNC[C@H]2COc2ccc3c(c2)OCO3)cc1 [Paroxetine hydrochloride] (20 µM)
Return: satisfied

Enquiry: For this molecule, is measured growth 1 or higher? N=C(NCCCCCCNC(=N)NC(=N)Nc1ccc(Cl)cc1)NC(=N)Nc1ccc(Cl)cc1 [Chlorhexidine] (20 µM)
Return: not satisfied

Enquiry: Exam item: decide whether the reported growth for CCC(=O)OCC(=O)[C@@]1(OC(=O)CC)[C@H](C)C[C@H]2[C@H]3[C@H]([C@@H](O)C[C@@]21C)[C@@]1(C)C=CC(=O)C=C1C[C@H]3Cl [Alclometasone dipropionate] (20 µM) is at least 1.
Return: satisfied

Enquiry: Reported growth reaches at least 1 for Cc1cc(NS(=O)(=O)c2ccc(N)cc2)no1 [Sulfamethoxazole] (20 µM) ?
Return: satisfied

Enquiry: Determine whether this molecule has growth no lower than 1: Nc1ccn([C@H]2CC[C@@H](CO)O2)c(=O)n1 [Zalcitabine] (20 µM)
Return: satisfied

Enquiry: Given CNC[C@H](O)[C@@H](O)[C@H](O)[C@H](O)CO [Meglumine] (20 µM) , state whether its growth is at least 1.
Return: satisfied

Enquiry: Is reported growth greater than or equal to 1 here: O=C(NCCCN1CCOCC1)c1ccc(Cl)cc1 [Eprobemide] (20 µM)
Return: satisfied

Enquiry: Is the recorded value of growth equal to or greater than 1 for this molecule? CCCc1cc(=O)[nH]c(=S)[nH]1 [Propylthiouracil] (20 µM)
Return: satisfied
